# System: Human papillomavirus type 1a E7 protein (residues 1-88)
# ASSAY METHOD TEXT: HPV1a E7 small-molecule binders, primary screen, biochemical, small-molecule microarray, residues 1-88, 635 nm (AID 1129)
# MEASUREMENT CONDITIONS: small-molecule microarray binding, fluorescence 635 nm; higher = more signal
Please assign a class to every record based on measured composite z-score, with ranges A = under 0.3, B = from 0.3 up to 1, C = 1 and over

COMPOUND | CLASSIFICATION
CC[C@@H](O[Si](C#C[Si](C(C)C)(C(C)C)C(C)C)(C(C)C)C(C)C)c1cn([C@H](CO)Cc2ccccc2)nn1 | B
C=CC[C@H](O)c1ccc(O)c(F)c1 | A
COCCOC(=O)N1C(=O)[C@@]2(c3cc(C#CC4=CCCCC4)ccc31)[C@H](c1ccc(O)cc1)N1[C@H](c3ccccc3)[C@H](c3ccccc3)OC(=O)[C@H]1[C@@H]2C(=O)N1CCc2cc(OC)c(OC)cc2C1 | C
COCCOC(=O)N1C(=O)[C@@]2(c3cc(C#CC4=CCCCC4)ccc31)[C@H](C(=O)N1CCCCCCC1)[C@H]1C(=O)O[C@H](c3ccccc3)[C@H](c3ccccc3)N1[C@@H]2c1ccccc1OCCO | C
CCOC(=O)C[C@H]1[C@H](OC(=O)Cc2ccc3c(c2)OCO3)[C@@H](NC(=O)CC(C)C)c2cc(OCCCO)ccc2N1C(=O)c1ccc2ccccc2n1 | B
CO[C@H]1O[C@H](CO)[C@@H](OC(=O)Nc2cccc(F)c2)[C@H](OC(=O)c2cc3ccccc3[nH]2)[C@H]1OC(=O)c1cc2ccccc2[nH]1 | A
COCCCNC(=O)[C@]1(Cc2ccccc2CN=[N+]=[N-])N=C(c2ccc(OCCCO)cc2)O[C@@H]1c1ccccc1N=[N+]=[N-] | C
O=C1O[C@H](c2ccccc2)[C@H](c2ccccc2)N2[C@H]1[C@@H](C(=O)O)[C@]1(C(=O)Nc3ccc(C#CC4(O)CCCCCC4)cc31)[C@H]2c1ccccc1OCCO | C
[N-]=[N+]=NCc1ccccc1[C@H]1OC(c2ccc(OCCCO)cc2)=N[C@@]1(Cc1ccccc1N=[N+]=[N-])C(N)=O | C
CC1CC/C=C\[C@H]2OC34C=CCN(C(C)C)C(=O)[C@H]3N(C(C)CO)C(=O)[C@@H]4C2C(=O)O1 (some centres not stated) | A
C=CC[C@@]1(C(=O)NCCCOC)N=C(c2ccc(OCCCO)cc2)O[C@@H]1c1ccccc1CN=[N+]=[N-] | C

----------
# ASSAY METHOD TEXT: small-molecule microarray binders of probe aWnt5a, primary screen, biochemical, biotinylated probe, 635/667 nm fluorescence (AID 1113);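 further: score merges 667 nm fluorescence intensity with signal-to-noise per printed feature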
# MEASUREMENT CONDITIONS: higher = more signal
# composite z-score values compiled below

COMPOUND | composite z-score
C=CC[C@H](O)c1ccc(O)c2ccccc12 | -0.0521
[N-]=[N+]=NCc1ccccc1C[C@@]1(C(N)=O)N=C(c2ccc(OCCCO)cc2)O[C@@H]1c1ccccc1N=[N+]=[N-] | 0.0088
COc1cc2c(cc1O)C(C)N(Cc1sc3ccccc3c1Cl)CC2 (configuration not stated) | -0.117
COC(=O)[C@@]1(Cc2ccc(F)cc2)[C@H]2c3cc(C(=O)N4CCCC4)n(CCSCCO)c3C[C@H]2CN1C(=O)c1ccccc1 | 0.0914
CC(C)(C)OC(=O)CC[C@]1(C(N)=O)N=C(c2ccc(OCCCO)cc2)O[C@H]1c1ccccc1N=[N+]=[N-] | 0.0371
[N-]=[N+]=NCc1ccccc1[C@H]1OC(c2ccc(OCCCO)cc2)=N[C@@]1(Cc1ccccc1N=[N+]=[N-])C(=O)O | -0.0161
CC1C2C(CCCO)=CC(C3C(=O)N(C)C(=O)C23)N1Cc1cccc(OC(F)(F)F)c1 (configuration not stated) | 0.0317
CC[C@@H](O[Si](C#C[Si](C(C)C)(C(C)C)C(C)C)(C(C)C)C(C)C)c1cn([C@H](C)c2ccccc2)nn1 | -0.0758
CC(C)c1ccc(NN2C(C(O)C3=C[C@H]4C[C@@H](C3)C4(C)C)C=CC3C(=O)N(c4ccccc4)C(=O)C32)cc1 (some centres not stated) | 0.0403
COC(=O)C(CC#Cc1ccc2c(c1)[C@]1(C(=O)N2)[C@H](c2ccc(OCCO)cc2)N2[C@H](c3ccccc3)[C@H](c3ccccc3)OC(=O)[C@H]2[C@@H]1C(N)=O)C(=O)OC | -0.156
CN1C(=O)C2C=CC(C(O)c3cccs3)N(N(c3ccccc3)c3ccccc3)C2C1=O (configuration not stated) | 0.143
CCOC(=O)C[C@H]1[C@H](OC(=O)c2cc3ccccc3oc2=O)[C@@H](NC(=O)Cc2ccc(OC)cc2)c2cc(OCCCO)ccc2N1C(=O)Cc1ccc(OC)cc1 | -0.096
COC(=O)[C@@]1(Cc2ccc(F)cc2)[C@H]2c3cc(C(=O)N(C)C)n(Cc4cccc5ccccc45)c3C[C@H]2CN1C(=O)c1ccccc1 | 0.492
Cc1ccc(S(=O)(=O)N2[C@@H](c3ccccc3)C(C(=O)O)=CC[C@H]2c2ccc(F)cc2)cc1 | 0.108
O=C1C2C=CC(C(O)C3CCCCC3)N(Nc3ccccc3F)C2C(=O)N1c1ccccc1 (configuration not stated) | 0.0993
CCOC(=O)C[C@H]1[C@H](OC(=O)c2ccccc2-c2ccccc2)[C@@H](NC(=O)CC(C)C)c2cc(OCCCO)ccc2N1C(=O)c1ccccc1 | -0.124
C=C(COC)/C(=C/C[C@@H](OC(C)=O)c1cccc(OCCO)c1)c1cnc2ccccc2c1 | 0.0391
CC1CC/C=C\[C@H]2OC34C=CCN(C(C)C)C(=O)[C@H]3N(C(C)CO)C(=O)[C@@H]4C2C(=O)O1 (some centres not stated) | -0.128
COc1ccc([Si](C)(C)[C@H]2[C@H](CC(=O)N(CCO)Cc3ccccc3)O[C@@]3(C(=O)N(Cc4ccc(N5C(=O)c6cccc7cccc5c67)cc4)c4ccccc43)[C@@H]2C)cc1 | 0.0495
[N-]=[N+]=Nc1ccccc1C[C@@]1(C(=O)NCc2ccccc2)N=C(c2ccc(OCCCO)cc2)O[C@@H]1c1ccccc1 | 0.534
C=CCNC(=O)[C@@H]1[C@H]2C(=O)O[C@H](c3ccccc3)[C@H](c3ccccc3)N2[C@H](c2ccc(OCCO)cc2)[C@@]12C(=O)Nc1ccc(C#CC3=CCCCC3)cc12 | -0.012
C=CC[C@H](OC(=O)Nc1ccc(SC)cc1)c1ccc(O)c(F)c1 | -0.147
C=CCNC(=O)[C@@H]1[C@H]2C(=O)O[C@H](c3ccccc3)[C@H](c3ccccc3)N2[C@H](c2ccc(O)cc2)[C@@]12C(=O)N(C(=O)OCCOC)c1ccc(C#CCC(C(=O)OC)C(=O)OC)cc12 | -0.001
CC(CO)N1C(=O)[C@@H]2[C@H]3C(=O)OCC=C[C@H]3OC23C=CCN(c2ccc4ccccc4c2)C(=O)[C@@H]13 (some centres not stated) | -0.174
C=C(C(=O)CC[C@@H](OC(=O)c1ccccc1-c1ccccc1C(=O)O)c1cccc(OCCO)c1)C(C)C | -0.129
COCCCNC(=O)[C@@]1(Cc2ccccc2I)c2ccccc2C(=O)N(Cc2ccccc2OC)[C@H]1c1ccc(CO)cc1 | -0.248
CN(C)CCCCNC(=O)[C@H]1C[C@H]2C(=O)N[C@@H](CCCCN(C)C)C(=O)N2[C@H]1c1ccc(O)cc1 | -0.128
